The reported measurements were obtained from patent US7135466B2.

Reported inhibition at 1 µM values for a set of compounds
Subject Of Test: c-kit (Homo sapiens)
Construct: MO7e (human megakaryocytic leukemia cell line) which had been arrested for 20 hr; endogenous in cells; host or cells: MO7e human megakaryocytic leukemia cell line
Sequence (P10721 26-976): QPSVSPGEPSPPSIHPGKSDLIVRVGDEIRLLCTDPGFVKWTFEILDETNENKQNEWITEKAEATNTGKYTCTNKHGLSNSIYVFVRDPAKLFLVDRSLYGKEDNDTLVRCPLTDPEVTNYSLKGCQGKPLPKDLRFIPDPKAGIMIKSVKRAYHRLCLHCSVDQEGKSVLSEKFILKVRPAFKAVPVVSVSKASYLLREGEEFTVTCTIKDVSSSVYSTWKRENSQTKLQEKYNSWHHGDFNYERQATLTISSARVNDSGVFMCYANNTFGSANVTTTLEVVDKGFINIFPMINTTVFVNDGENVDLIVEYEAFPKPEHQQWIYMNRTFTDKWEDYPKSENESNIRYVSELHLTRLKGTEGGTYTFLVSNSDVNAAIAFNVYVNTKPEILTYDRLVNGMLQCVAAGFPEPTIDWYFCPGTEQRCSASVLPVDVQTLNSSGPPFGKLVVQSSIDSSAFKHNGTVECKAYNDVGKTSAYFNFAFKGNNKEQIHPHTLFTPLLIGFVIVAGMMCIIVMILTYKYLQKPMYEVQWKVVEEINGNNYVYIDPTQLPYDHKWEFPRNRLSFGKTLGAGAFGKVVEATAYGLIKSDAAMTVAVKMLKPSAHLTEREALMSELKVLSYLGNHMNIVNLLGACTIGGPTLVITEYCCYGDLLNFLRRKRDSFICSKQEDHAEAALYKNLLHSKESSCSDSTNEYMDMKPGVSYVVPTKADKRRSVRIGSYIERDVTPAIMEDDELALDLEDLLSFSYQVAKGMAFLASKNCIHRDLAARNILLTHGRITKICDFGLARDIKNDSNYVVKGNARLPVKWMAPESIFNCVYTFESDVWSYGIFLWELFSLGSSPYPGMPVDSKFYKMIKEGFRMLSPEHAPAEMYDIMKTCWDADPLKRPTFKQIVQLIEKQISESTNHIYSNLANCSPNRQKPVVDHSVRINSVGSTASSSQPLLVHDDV
Assay Info: Inhibitory activity against c-kit autophosphorylation (MO7e cells, h-SCF)
Format: cell-based
Condition: Mo7e, figure within parentheses in −( ) or >1000( ); at 1000 nM
A number alone suffices; assume %.

Compound: CCCC(CCN1CCN(C)CC1)OC(=O)Nc1ccc(Oc2ncnc3cc(OC)c(OC)cc23)cc1 (centres unmarked)
Subject Of Test: c-kit (Homo sapiens)
inhibition at 1 µM, %: 37

stdin: Query (compound): COc1cc2ncnc(Oc3ccc(NC(=O)NC4CCN(Cc5ccc(C(C)(C)C)cc5)C4)cc3)c2cc1OC (centres unmarked) ; field requested: inhibition at 1 µM
stdout: 18

stdin: Another compound to look at: COc1cc2nccc(Oc3ccc(NC(=S)NC(=O)C(OC)c4ccccc4)cc3)c2cc1OC (centres unmarked)
stdout: 44

stdin: Another compound to look at: COc1cc2nccc(Oc3cc(C)c(NC(=S)NCCNC(C)=O)cc3C)c2cc1OC
stdout: 21

stdin: Another compound to look at: COc1cc2ncnc(Oc3ccc(OCC(=O)N4CCC(c5ccccc5)CC4)cc3)c2cc1OC
stdout: 20

stdin: Another compound to look at: CCN(CC)CCNC(=O)Nc1ccc(Oc2ccnc3cc(OC)c(OC)cc23)cc1[N+](=O)[O-]
stdout: 0

stdin: Another compound to look at: COc1cc2nccc(Oc3ccc(NC(=O)NC4CCN(Cc5ccccc5)CC4)c(C)c3)c2cc1OC
stdout: 2

stdin: Another compound to look at: COc1cc2ncnc(Oc3ccc(NC(=O)NN4CCCCC4)c([N+](=O)[O-])c3)c2cc1OC
stdout: 8
